Assay: Cytotoxicity assay, Cell-Titer-Glo, HeLa-CD4-LTR-LacZ
Conditions: human, hela-cd4-ltr-lacz cells, Infectivity CC50, HeLa-CD4-LTR-LacZ; analogs of TT-44881 (Table 1)
Description: Next, the activity of these leads against HIV infection was evaluated using the reporter cell line HeLa-CD4-LTR-LacZ, which stably expresses the β-galactosidase (β-Gal) gene under the control of the HIV 5′ LTR. The HIV NL4.3 strain was used for these studies and β-Gal activity was measured 72 hrs post infection (FIG. 3A). […] Their anti-HIV activity was further assessed in acute replication of Jurkat T cells with the NL4.3 strain (FIG. 3A). […]
Readout type: CC50

Example cases with answers are listed next.
{"Compound": "CS(=O)(=O)N1CCN(C(=O)c2cn(-c3ccccc3)c3ccccc23)CC1 [compound 41798]", "CC50": "> 100 µM"}
{"Compound": "O=C(NCCCN1CCCC1=O)c1nnc(-c2ccccc2)c2ccccc12 [compound 46934]", "CC50": "> 100 µM"}
{"Compound": "N#Cc1ccc(NC(=O)c2cn(-c3ccccc3)c3ccccc23)cc1 [compound 41905]", "CC50": "1 to 10 µM"}
{"Compound": "O=C(NCCCN1CCCC1=O)c1c[nH]nc1C1CC1 [compound 46821]", "CC50": "> 100 µM"}
{"Compound": "O=C(NCCCN1CCCC1=O)c1nn(-c2ccccc2)c2c1CCCC2 [compound 46819]", "CC50": "> 50 µM"}

INPUT: Fill in reported CC50 for this entry: O=C(NCCCN1CCCC1=O)c1nn(-c2ccccc2)c2ccc(F)cc12 [compound 46820]
OUTPUT: > 100 µM

INPUT: Answer with the recorded CC50 of CC(=O)c1cccc(CNC(=O)c2cn(-c3ccccc3)c3ccccc23)c1 [compound 41967] only.
OUTPUT: > 100 µM

INPUT: Read the entry O=C1CCCN1CCCN(Cc1ccccc1)C(=O)c1nn(-c2ccccc2)c2c1CCC2 [GB-09] and write its reported CC50.
OUTPUT: 25 to 50 µM

INPUT: Consider the compound CCOC(=O)c1c(NCCCN2CCCC2=O)c2ccccc2[nH]c1=O [compound 46823] . State its measured CC50.
OUTPUT: > 100 µM

----------
Tested on: HeLa-CD4-LTR-LacZ cells
Assay: Cytotoxicity assay, Cell-Titer-Glo, HeLa-CD4-LTR-LacZ
Details: read-out: Infectivity CC50; HeLa-CD4-LTR-LacZ; analogs of TT-44863 (Table 2)
Readout type: CC50

INPUT: Answer with the recorded CC50 of `CC(C)(C)OC(=O)COCCOCCOc1ccc(C(F)(F)F)cc1NC(=O)Cn1cc(C(F)(F)F)cc(Cl)c1=O` only.
OUTPUT: > 100 µM

----------
Assay: Cytotoxicity assay, Cell-Titer-Glo, HeLa-CD4-LTR-LacZ
Conditions: human, hela-cd4-ltr-lacz cells, Infectivity CC50, HeLa-CD4-LTR-LacZ; analogs of TT-44863 (Table 2)
Readout type: CC50

INPUT: Using the record for `COc1ccc(OC(F)(F)F)cc1NC(=O)Cn1cc(C(F)(F)F)cc(Cl)c1=O` , state its measured CC50.
OUTPUT: > 100 µM

INPUT: Quote CC50 reported for `COc1ccc(C(F)(F)F)cc1NC(=O)Cn1cc(C#N)cc(Cl)c1=O` please.
OUTPUT: > 50 µM

INPUT: Entry `O=C(Cn1cc(C(F)(F)F)cc(Cl)c1=O)Nc1cccc2c1OCCO2` needs its CC50 filled in; supply it.
OUTPUT: > 100 µM

INPUT: Quick one: give measured CC50 for `COc1ccc(C(F)(F)F)cc1NC(=O)Cn1cccc(F)c1=O`
OUTPUT: > 100 µM
